Where these numbers come from: the supplement of paper PMC9732359

test: protein stability index of a GFP-peptide fusion (yeast GPS) (PSI 1-4); higher = more stable; sorted into four equal gates, so the index is relative within each strain; conditions: san1∆
Rule: protein stability index under 3 gives Criterion not met, otherwise Criterion met.

{"SEQUENCE RECORD": "ISTLQVKLYGREGSSAR [RPB2]", "ASSIGNED CATEGORY": "Criterion not met"}
{"SEQUENCE RECORD": "VNDTVKIDLASGKITDF [RPS4A]", "ASSIGNED CATEGORY": "Criterion met"}
{"SEQUENCE RECORD": "NNIIRIQQLISQFLKRV [SNF11]", "ASSIGNED CATEGORY": "Criterion not met"}

Quick check, protein stability index >= 3? SVQINVAKVDEEGRAIP [RPS21A] Criterion met

State whether the measured protein stability index reaches 3, counting equality as reaching it, for TAAYARTIGIAVDHRRQ [RPL13A] Criterion not met

Has LAASEIGISIVGRFSTI [ECM29] a recorded protein stability index greater than or equal to 3? Criterion not met

Please indicate if the recorded protein stability index for IFSYLQFTSSLFKALKV [RGR1] meets or exceeds 3. Criterion not met

Is it the case that ARLPPRATNCRKRKCGH [RPL40A] has protein stability index reaching or exceeding 3? Criterion met

I'd appreciate it if you could say whether GKETIARVTGGMKVKAD [RPS14B] has protein stability index at least equal to 3. Criterion not met

Does the sequence EEKVIERAAQKLRLDQL [ISW2] have recorded protein stability index that is 3 or more? Criterion not met

Exam item: decide whether the reported protein stability index for TEVIIRATRTQDVLGEN [RPS3] is at least 3. Criterion met

API: above_or_equal(metric=protein stability index, cutoff=3) for item KLDLFKYFTELSHYIRQ [MED1] Criterion not met

API: above_or_equal(metric=protein stability index, cutoff=3) for item QQQQMQQQQQQQQQQQN [SSN2] Criterion not met

Would you say FTICLNDRNPRLNENKK [CSN12] shows protein stability index at minimum 3? Criterion met

----------
For each of the sequences below, state its protein stability index.
assay: protein stability index of a GFP-peptide fusion (yeast GPS) (PSI 1-4); higher = more stable; sorted into four equal gates, so the index is relative within each strain; settings: ubr1∆
Answers are plain numbers.

{"SEQUENCE RECORD": "LTALGKEKEKEREEAEK [MED2]", "protein stability index": 1.32}
{"SEQUENCE RECORD": "KEKIKNNRQLPYLVANV [RPT5]", "protein stability index": 2.64}
{"SEQUENCE RECORD": "ALLRSGRLDRKIEFPLP [RPT5]", "protein stability index": 3.43}
{"SEQUENCE RECORD": "IKTQQHILPEVPPVENF [TAF14]", "protein stability index": 2.95}
{"SEQUENCE RECORD": "IQVLTEASSLGYLDDSE [IRR1]", "protein stability index": 1.42}
{"SEQUENCE RECORD": "FTGNNSTPGGGSVFNMN [YOR098C/NUP1]", "protein stability index": 3.03}
{"SEQUENCE RECORD": "HTPMVNFESISARSSVH [SRB8]", "protein stability index": 2.12}
{"SEQUENCE RECORD": "QNVTSETHSKKRKKEAN [ITC1]", "protein stability index": 3.08}
{"SEQUENCE RECORD": "QGEEEELIALNLSEARL [RPB4]", "protein stability index": 3.26}
{"SEQUENCE RECORD": "LPVKWETTTQFKATHIL [FAS1]", "protein stability index": 2.34}

Can you give me protein stability index for all of these, one by one?
1. RKIKRLEKFLQGRDTSK [SRP72]
2. RENALYDYYALQLLPLQ [SNF2]
3. SKNLGEINTALNTLLVT [SWI1]
4. QPKAPRAPKVIHGQDFQ [ISW2]

[2.76, 2.77, 1.46, 3.19]

----------
assay: protein stability index of a GFP-peptide fusion (yeast GPS) (PSI 1-4); higher = more stable; sorted into four equal gates, so the index is relative within each strain; conditions: ubr1∆
Please provide measured protein stability index for the entries that follow.

{"SEQUENCE RECORD": "TNVNVKIKDVQQQIESN [SMC3]", "VALUE OBSERVED": 2.79}

State the recorded protein stability index for every item in the following list.
1. DLQLLYVESDEDDTQIV [IRR1]
2. DVAIENNTLSRYADAGN [RRP43]
3. PIPIAVLDSYTPSTNEP [FAS1]
4. PNRLVKELQYDNEQNLE [PRE2]
5. IFSYGPHIQKMLSILEI [POP6]

3.16
3.44
2.85
3.08
2.24

----------
experiment: protein stability index of a GFP-peptide fusion (yeast GPS) (PSI 1-4); higher = more stable; sorted into four equal gates, so the index is relative within each strain; settings: ubr1∆
Would you kindly list protein stability index for each of these sequences?
Answers are plain numbers.

Would you please look over these solved cases?
{"SEQUENCE RECORD": "VNTTRRFQYSDDEPAEK [YMR129W/POM152]", "PARAMETER MEASURED": "protein stability index", "VALUE OBSERVED": 2.95}
{"SEQUENCE RECORD": "QCPVKSAEDQLYAITFR [QCR2]", "PARAMETER MEASURED": "protein stability index", "VALUE OBSERVED": 3.09}
{"SEQUENCE RECORD": "VNDRSDISDSEGGLFEC [PCI8]", "PARAMETER MEASURED": "protein stability index", "VALUE OBSERVED": 3.08}

Next:
Reported protein stability index for KQQPTMQANKLDSQETP [SWI3] : what is it? 2.95

----------
assay: protein stability index of a GFP-peptide fusion (yeast GPS) (PSI 1-4); higher = more stable; sorted into four equal gates, so the index is relative within each strain; conditions: pdr5∆
PARAMETER MEASURED: protein stability index
Answers are plain numbers.

Below, each entry is followed by its recorded protein stability index result.
{"SEQUENCE RECORD": "SVLNPFLLRRVKADVEK [ISW2]", "VALUE OBSERVED": 1.09}
{"SEQUENCE RECORD": "VIAKLNHNQFECKGCDN [RPB2]", "VALUE OBSERVED": 3.14}
{"SEQUENCE RECORD": "ISCPLIGVIQLAHYVVT [FAS1]", "VALUE OBSERVED": 1.2}
{"SEQUENCE RECORD": "RRKDTSMVLFFVCLSCS [RPB9]", "VALUE OBSERVED": 1.32}
{"SEQUENCE RECORD": "VNADTVGKTVKQLIMES [NSL1]", "VALUE OBSERVED": 3.13}
{"SEQUENCE RECORD": "IMRILKSNGLAPEIPED [RPS13]", "VALUE OBSERVED": 3.09}
{"SEQUENCE RECORD": "IVQFTYGGDGLDPLEME [RPO31]", "VALUE OBSERVED": 3.09}
{"SEQUENCE RECORD": "LDRIPMHSYFIFKDLVT [COB]", "VALUE OBSERVED": 1.91}
{"SEQUENCE RECORD": "KIDGNPDELIKAGVEAI [PRE5]", "VALUE OBSERVED": 3.44}
{"SEQUENCE RECORD": "NYELEKIADNISKDENE [YDL116W/NUP84]", "VALUE OBSERVED": 3.04}

# batch size: 7; output protein stability index per entry
1. HSNLEKISNSKLLSLLR [SIR4]
2. MMEEIINVVIKASRKSV [ECM29]
3. VEFINKMENFEFLPLSL [SRB8]
4. REIHNEAESQLRAAQQQ [FAS2]
5. KDRISHEVVQDDSFSLL [PCI8]
6. QVSNFAPQVYIITKNEN [GAL11]
7. GNNNNNNSGNDNNNTTN [MED2]

1. 2.65
2. 1.75
3. 3
4. 2.36
5. 3.46
6. 1.98
7. 3.05

For each of the items listed, what is its protein stability index?
1. VRRLEAQRNALNDKVRF [RPT6]
2. AQFIVISLRNNMFELAQ [SMC4]
3. IAFDDLIENKIQNKKIQ [RPN8]

[2.96, 1.67, 2.25]

----------
experiment: protein stability index of a GFP-peptide fusion (yeast GPS) (PSI 1-4); higher = more stable; sorted into four equal gates, so the index is relative within each strain; conditions: pdr5∆
Exercise: state measured protein stability index for each of the sequences provided.
Answers are plain numbers.

Take a look at these entries with their results.
{"SEQUENCE RECORD": "TINISLSFSWAILLIIN [NUT1]", "PARAMETER MEASURED": "protein stability index", "VALUE OBSERVED": 1.61}
{"SEQUENCE RECORD": "EPLTEIKNVIVSNRVAA [RPP0]", "PARAMETER MEASURED": "protein stability index", "VALUE OBSERVED": 2.1}
{"SEQUENCE RECORD": "KDSSLNYSSESYRNAFT [YJL039C/NUP192]", "PARAMETER MEASURED": "protein stability index", "VALUE OBSERVED": 2.32}
{"SEQUENCE RECORD": "VLKKKNIQKKQPAKEKG [RRP6]", "PARAMETER MEASURED": "protein stability index", "VALUE OBSERVED": 3.03}
{"SEQUENCE RECORD": "MIQEVIVEEDLEPFEAS [FAS2]", "PARAMETER MEASURED": "protein stability index", "VALUE OBSERVED": 3.16}

Look at each sequence and report its protein stability index.
1. ERAELETDEYISYTSHI [RPN1]
2. ARNLYIIAVKGSGSRLN [RPL23A]
3. RDDGKRELLVEGYGLRD [RPO31]

3.19
1.19
2.56

// input: 8 sequences below; output: protein stability index for each
1. QAQAQVYAQQSTVQTPI [PGD1]
2. LAASEIGISIVGRFSTI [ECM29]
3. QTEIKDIILGQNIKAPS [PRP8]
4. YKLNVRSNDPQSSLSKV [NUT2]
5. SVANTPSEIPDAHKAEQ [SWI3]
6. LQGQMEKIMILLVPLAL [CSN12]
7. MGPLSNIAQMIPGMSNM [SRP54]
8. MKLNISYPVNGSQKTFE [RPS6A]

1. 2.91
2. 2.95
3. 3.04
4. 3.42
5. 3.25
6. 1.63
7. 2.75
8. 2.77

Please state protein stability index for every sequence in the list that follows.
1. ISTLQVKLYGREGSSAR [RPB2]
2. RVISEYYSRITLLRLNE [RPN5]
3. KYDRKVPSPTGEYVKEP [RPO21]

[2.77, 1.67, 3.22]

Please go through the list and note protein stability index for each sequence.
1. EAMLRENIEVILSNGRM [SNF12]
2. VGRQDPKKHLSETADET [RPN11]
3. EEKVIERAAQKLRLDQL [ISW2]
4. SLVKYPELLDSLAILGM [SWI1]
5. TRSALKLVRESELLGGT [QCR2]
6. LHVLVAHKLKKSLDSIP [FAS2]
7. TEKLKISPESVFGTLGE [SMC3]

2.82
2.96
2.89
2.31
2.5
2.1
2.34
